These data points were gathered from patent US20040176393A1.

- SYSTEM NAME: MMP-3 (stromelysin) (Homo sapiens, UniProt P08254)
- Sequence (P08254 100-477, species assumed): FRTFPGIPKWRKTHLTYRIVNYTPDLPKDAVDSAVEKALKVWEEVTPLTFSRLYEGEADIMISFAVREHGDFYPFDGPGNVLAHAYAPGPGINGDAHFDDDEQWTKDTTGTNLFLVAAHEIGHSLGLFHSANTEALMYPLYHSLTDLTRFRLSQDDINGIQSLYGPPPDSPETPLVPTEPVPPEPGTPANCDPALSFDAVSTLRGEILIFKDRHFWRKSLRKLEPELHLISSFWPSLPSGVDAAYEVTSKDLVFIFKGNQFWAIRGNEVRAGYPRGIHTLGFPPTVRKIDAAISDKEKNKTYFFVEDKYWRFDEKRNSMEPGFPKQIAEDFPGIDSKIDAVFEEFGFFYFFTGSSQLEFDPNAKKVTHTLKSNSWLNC
Measured pIC50, listed per entry for reference.
A value of pIC50 is the negative decimal logarithm of a concentration given in moles per litre.

>>> measured_value("O=C(O)[C@H](CS)NS(=O)(=O)c1ccc2oc3ccccc3c2c1")
6.16

## Task # input compound: CC(C)[C@H](NS(=O)(=O)c1ccc2oc3ccccc3c2c1)C(=O)O ; wanted: its pIC50
## Result 6.64

## Task What pIC50 value was documented for this compound, O=C(O)CCC(O)c1ccc(-c2ccc(Cl)cc2)cc1 (racemic) ?
## Result 6.55

## Task Fill in the blank: the reported pIC50 of O=C(CCC(=O)c1ccc(N2CCC(c3ccccc3)CC2)cc1)NO is ____.
## Result 7.70

## Task May I ask what pIC50 has been recorded for O=C(Cc1ccccc1)N[C@@H](CC(=O)c1ccc2oc3ccccc3c2c1)C(=O)O ?
## Result 6.48

## Task Name the reported pIC50 value associated with the compound N[C@@H](CC(=O)c1ccc2oc3ccccc3c2c1)C(=O)O
## Result 4.48

## Task Look up pIC50 for this compound: CC(=O)N[C@@H](CC(=O)c1ccc2oc3ccccc3c2c1)C(=O)O
## Result 5.81

###

- SYSTEM NAME: UniProt:P08253
- Sequence (P08253 110-660): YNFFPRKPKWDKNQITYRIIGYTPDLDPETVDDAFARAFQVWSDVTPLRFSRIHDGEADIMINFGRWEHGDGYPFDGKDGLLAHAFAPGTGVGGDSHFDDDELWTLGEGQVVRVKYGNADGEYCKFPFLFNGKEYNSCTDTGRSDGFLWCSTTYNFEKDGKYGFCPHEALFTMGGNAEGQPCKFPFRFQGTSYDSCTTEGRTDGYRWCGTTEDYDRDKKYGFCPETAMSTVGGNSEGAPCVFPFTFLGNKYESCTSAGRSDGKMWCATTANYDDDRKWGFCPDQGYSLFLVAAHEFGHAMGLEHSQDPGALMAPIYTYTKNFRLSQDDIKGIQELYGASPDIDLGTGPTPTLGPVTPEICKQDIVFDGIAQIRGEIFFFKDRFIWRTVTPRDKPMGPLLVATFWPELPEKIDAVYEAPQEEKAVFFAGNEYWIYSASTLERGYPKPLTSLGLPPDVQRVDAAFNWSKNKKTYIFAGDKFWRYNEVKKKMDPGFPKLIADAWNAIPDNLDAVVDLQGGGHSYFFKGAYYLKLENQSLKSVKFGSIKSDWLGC
Reported pIC50 by item:
For clarity, pIC50 is expressed as the negative log10 of concentration in mol/L.

Answered examples (3):
>>> measured_value("CN(C)N=C(CCC(=O)O)c1ccc(-c2ccc(Cl)cc2)cc1")
6.14
>>> measured_value("O=C(O)[C@H](Cc1ccccc1)NS(=O)(=O)c1ccc(-c2ccc(Br)cc2)cc1")
7.59
>>> measured_value("COc1ccc(N2CCN(c3ccc(S(=O)(=O)N[C@@H](Cc4ccccc4)C(=O)O)cc3)CC2)cc1")
7.48

Next up:
## Task # query: pIC50 of entry O=C(O)CNS(=O)(=O)c1ccc(N2CCC(c3ccccc3)CC2)cc1
## Result 6.68

###

Overview of recorded log10(IC50) for various compounds
- SYSTEM NAME: MMP-2 (Gelatinase A) (Homo sapiens)
Answers are given as log10 of IC50 in nM.

These solved cases illustrate the format of a correct answer.
>>> measured_value("O=C(CNS(=O)(=O)c1ccc(N2CCC(c3ccccc3)CC2)cc1)NO")
2.91
>>> measured_value("O=C(O)[C@H](Cc1ccccc1)NS(=O)(=O)c1ccc(N2CCC(Cc3ccccc3)CC2)cc1")
1.94
>>> measured_value("O=C(CCC(=O)c1ccc(N2CCC(c3ccccc3)CC2)cc1)NO")
1.60
>>> measured_value("O=C(O)[C@H](CCc1ccccc1)NS(=O)(=O)c1ccc2oc3ccccc3c2c1")
2.42
>>> measured_value("O=C(O)CCC(=NO)c1ccc(-c2ccc(Br)cc2)cc1")
1.76

With those in mind, consider the next compound.
## Task Form field: log10(IC50) recorded for O=C(O)[C@H](CSC(c1ccccc1)(c1ccccc1)c1ccccc1)NS(=O)(=O)c1ccc2oc3ccccc3c2c1 with MMP-2 (Gelatinase A) (Homo sapiens) (enter value)
## Result 3.97
